Tested on: HL-60(TB) leukemia
Experiment: NCI tumour cell line growth inhibition, 48 h
Value Kind: TGI (µM)
Respond numerically; units are µM and should not be typed.

Quick one: give measured TGI for O=C(O)c1ccccc1/C=C1/Cc2ccc3c(c2C1=O)CCC3
48

Quick one: give measured TGI for CCCCCCCC(=O)OC[C@H](C[As](=O)(O)O)OC(=O)CCCCCCC
22

Quick one: give measured TGI for O=C(c1ccc2ccccc2c1)c1c(C(F)(F)F)n([O-])c2cc(C(F)(F)F)ccc2[n+]1=O
3.59

// switching to the query molecule
Quick one: give measured TGI for COc1ccc([Se][Se]c2ccc(OC)cc2OC)c(OC)c1
5.89

---

System: K-562 leukemia
Test: NCI tumour cell line growth inhibition, 48 h; in the data active means GI50 below about 0.43 µM; inactive means the rest
Answer with one of the outcomes given here: active, inactive

Could you please tell me the result logged for CC(C)CCCCCCCCCCCCC(=O)NCC(=O)NC1C(C)OC(Nc2ncnc3nc[nH]c23)C(O)C1O (centres undefined) in this assay?
active

Could you please tell me the result logged for CCCCC(OC(=O)c1ccc(N)cc1)C(=O)Nc1nc(CC(=O)OCC)cs1 (centres undefined) in this assay?
inactive

Could you please tell me the result logged for CCN1C(=O)N(CC)C2C1NN=c1s/c(=C\c3ccc(C(F)(F)F)cc3)c(=O)n12 (centres undefined) in this assay?
active

Could you please tell me the result logged for COc1ccc(CNCCCN2C(=O)c3ccc4c5c(ccc(c35)C2=O)C(=O)N(CCCNCc2ccc(OC)c(OC)c2OC)C4=O)c(OC)c1OC in this assay?
active

Could you please tell me the result logged for O=C(Nc1n[nH]c2nc(-c3ccc(O)cc3)c(Br)cc12)C1CC1 in this assay?
inactive

Further cases:
Could you please tell me the result logged for CC1(C)CCc2c(c(N=Nc3ccccc3F)c3ccccc3c2O)O1 in this assay?
inactive

Could you please tell me the result logged for O=C1/C(=C/c2ccc(F)cc2)CN(C(=O)C(Cl)Cl)C/C1=C\c1ccc(F)cc1 in this assay?
active

Could you please tell me the result logged for CC1OC(CC(=O)O)Cc2c1c(O)c1c(O)cc(-c3cc(=O)c4c(=O)c5c(c(=O)c=4c3=O)CC(CC(=O)O)OC5C)c(O)c1c2O (centres undefined) in this assay?
inactive

Could you please tell me the result logged for CN[C@@H](Cc1cccc2ccccc12)C(=O)N[C@@H](CC(C)C)B(O)O in this assay?
active

---

Test system: M14 melanoma
Assay: NCI tumour cell line growth inhibition, 48 h
Value Kind: TGI

For orientation, consider the following solved cases.
Quick one: give measured TGI for COc1ccc(NC(=O)C(C#N)=C(SC)SC)cc1
> 100 µM

Quick one: give measured TGI for CC(ON1[C@](C)(c2ccccc2)CC[C@@]1(C)c1ccccc1)c1ccccc1 (some centres not stated)
> 100 µM

Further cases:
Quick one: give measured TGI for COc1c(C)c(OC)c(C(=O)CC(C)C)c(OC)c1C
> 100 µM

Quick one: give measured TGI for CSc1nc(-c2ccccc2)nc(C(C#N)C#N)n1
> 100 µM

Quick one: give measured TGI for Fc1ccc(-c2ncn(CCCN3CCOCC3)c2-c2ccncc2)cc1
> 25 µM

Quick one: give measured TGI for COC(=O)N/N=C(\C)CC(=O)Nc1cccc([N+](=O)[O-])c1
> 100 µM

Quick one: give measured TGI for Cc1oc2nc(N(C)C)nc(NN)c2c1C
> 100 µM
